Biological target: T1, TNFR1 (Homo sapiens, UniProt P19438)
T1 chain: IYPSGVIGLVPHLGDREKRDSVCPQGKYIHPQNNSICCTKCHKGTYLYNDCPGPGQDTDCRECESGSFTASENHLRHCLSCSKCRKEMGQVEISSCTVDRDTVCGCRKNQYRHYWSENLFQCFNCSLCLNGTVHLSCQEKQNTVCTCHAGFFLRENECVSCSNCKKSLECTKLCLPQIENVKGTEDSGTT
Test: yeast display SC50
outcome measure: apparent Kd (screen) (nM)

Some binders with known apparent Kd (screen) results, for comparison:
binder: E45V (designed binder) SMEEEVEKAAKEYEKKKKEAIEKHLEKLKAKDKEAAERFLKELEVAAKEYAKDEAKTMSEEEAKRRAKKYKEKVLLSELSEEEQKEIKEAEEKLVRTILKYVEEAAK
apparent Kd (screen) (nM): 1.86
//
binder: A67V (designed binder) SMEEEVEKAAKEYEKKKKEAIEKHLEKLKAKDKEAAERFLKELEEAAKEYAKDEAKTMSEEEAKRRVKKYKEKVLLSELSEEEQKEIKEAEEKLVRTILKYVEEAAK
apparent Kd (screen) (nM): 7.78
//
binder: R66Q (designed binder) SMEEEVEKAAKEYEKKKKEAIEKHLEKLKAKDKEAAERFLKELEEAAKEYAKDEAKTMSEEEAKRQAKKYKEKVLLSELSEEEQKEIKEAEEKLVRTILKYVEEAAK
apparent Kd (screen) (nM): 11.4

P. A105V (designed binder) SMEEEVEKAAKEYEKKKKEAIEKHLEKLKAKDKEAAERFLKELEEAAKEYAKDEAKTMSEEEAKRRAKKYKEKVLLSELSEEEQKEIKEAEEKLVRTILKYVEEVAK
Q. V95M (designed binder) SMEEEVEKAAKEYEKKKKEAIEKHLEKLKAKDKEAAERFLKELEEAAKEYAKDEAKTMSEEEAKRRAKKYKEKVLLSELSEEEQKEIKEAEEKLMRTILKYVEEAAK
Higher apparent Kd (screen) between P and Q ? Mark your answer with the label of the selected entry.
Q
(Q: 10.4 nM, P: 1.16 nM)

a. K29Q (designed binder) SMEEEVEKAAKEYEKKKKEAIEKHLEKLQAKDKEAAERFLKELEEAAKEYAKDEAKTMSEEEAKRRAKKYKEKVLLSELSEEEQKEIKEAEEKLVRTILKYVEEAAK
b. A46R (designed binder) SMEEEVEKAAKEYEKKKKEAIEKHLEKLKAKDKEAAERFLKELEERAKEYAKDEAKTMSEEEAKRRAKKYKEKVLLSELSEEEQKEIKEAEEKLVRTILKYVEEAAK
c. Y70G (designed binder) SMEEEVEKAAKEYEKKKKEAIEKHLEKLKAKDKEAAERFLKELEEAAKEYAKDEAKTMSEEEAKRRAKKGKEKVLLSELSEEEQKEIKEAEEKLVRTILKYVEEAAK
Thanks in advance: please rank these 3 entries by apparent Kd (screen), highest to lowest. Ranked list of labels, please, in the requested order.
c, b, a

A. K48M (designed binder) SMEEEVEKAAKEYEKKKKEAIEKHLEKLKAKDKEAAERFLKELEEAAMEYAKDEAKTMSEEEAKRRAKKYKEKVLLSELSEEEQKEIKEAEEKLVRTILKYVEEAAK
B. E45R (designed binder) SMEEEVEKAAKEYEKKKKEAIEKHLEKLKAKDKEAAERFLKELERAAKEYAKDEAKTMSEEEAKRRAKKYKEKVLLSELSEEEQKEIKEAEEKLVRTILKYVEEAAK
Lowest apparent Kd (screen)? choose A or B Mark your answer with the label of the selected entry.
A
